# Tested on: SW620 cells (KRAS G12V)
# method: Cell-based pERK HTRF assay in SW620 cell (Biological Example 4)
# experimental-context: Homo sapiens, SW-620, SW620 (KRAS G12V) cells, pERK HTRF
measured-parameter: IC50

Before answering, review these 3 worked examples.
Req: Need IC50 of CCN(c1nc(OC[C@@]23CCCN2C[C@H](F)C3)nc2c(F)c(-c3ccc(F)c4sc(N)c(C#N)c34)c(C(F)(F)F)cc12)[C@H]1CCN(C(=O)c2ccno2)C1 (atropisomer, axis not shown) , thanks.
Resp: < 100 nM

Req: # get_value(readout='IC50', item= CNC(=O)N1CC[C@@H](N(C)c2nc(OC[C@@]34CCCN3C[C@H](F)C4)nc3c(F)c(-c4ccc(F)c5sc(N)c(C#N)c45)c(C(F)(F)F)cc23)[C@H]1C )
Resp: < 100 nM

Req: Please look up its IC50: N#Cc1c(N)sc2c(F)ccc(-c3c(C(F)(F)F)cc4c(N5CCn6cnnc6C5)nc(OC[C@@]56CCCN5C[C@H](F)C6)nc4c3F)c12
Resp: 100 to 1000 nM

---
Req: Look up IC50 for this molecule: C[C@H]1C[C@H](N(C)c2nc(OC[C@@]34CCCN3C[C@H](F)C4)nc3c(F)c(-c4ccc(F)c5sc(N)c(C#N)c45)c(C(F)(F)F)cc23)CN1C(=O)C1CC1
Resp: < 100 nM

Req: Which IC50 is listed for N#Cc1c(N)sc2c(F)ccc(-c3c(C(F)(F)F)cc4c(N5CC6CC5CO6)nc(OC[C@@]56CCCN5C[C@H](F)C6)nc4c3F)c12 (some centres unmarked) ?
Resp: < 100 nM

----------
# tested-on: Avi-KRAS WT (1-169) GppNHp/RAF1 RBD-3xFLAG (52-151) (Homo sapiens, UniProt P01116)
# Construct: Avi-KRAS WT (1-169)
# Sequence (P01116 1-169 isoform P01116-2): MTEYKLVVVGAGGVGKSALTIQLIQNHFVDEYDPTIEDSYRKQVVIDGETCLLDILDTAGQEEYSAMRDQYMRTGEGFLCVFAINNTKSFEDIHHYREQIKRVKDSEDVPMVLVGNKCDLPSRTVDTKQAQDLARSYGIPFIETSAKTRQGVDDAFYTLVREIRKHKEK
# method: Raf1-KRAS WT-GppNHP disruption HTRF assay (Biological Example 1)
# Format: binding
# experimental-context: KRAS WT, GppNHp-loaded; Table 11
pIC50: −log10 of the molar value.
measured-parameter: pIC50

Some entries whose results are on file:
Req: Data request, read-out pIC50, for N#Cc1c(N)sc2c(F)ccc(-c3c(C(F)(F)F)cc4c(N5CCNC(=O)CC5)nc(OC[C@@]56CCCN5C[C@H](F)C6)nc4c3F)c12 [Compound 251]
Resp: 6.00 to 7.00

Req: Can you look up the measured pIC50 of CC(=O)N1CCN(c2nc(OC[C@@]34CCCN3C[C@H](F)C4)nc3c(F)c(-c4ccc(F)c5sc(N)c(C#N)c45)c(C(F)(F)F)cc23)C[C@H]1C [Compound 229] for me?
Resp: 5.00 to 6.00

Req: What value of pIC50 has been recorded for this entry: CC(=O)N1C[C@@H]2CCN(c3nc(OC[C@@]45CCCN4C[C@H](F)C5)nc4c(F)c(-c5ccc(F)c6sc(N)c(C#N)c56)c(C(F)(F)F)cc34)[C@@H]2C1 [Compound 211]
Resp: 6.00 to 7.00

Req: Param item = C[C@H](O)CN(C)c1nc(OC[C@@]23CCCN2C[C@H](F)C3)nc2c(F)c(-c3ccc(F)c4sc(N)c(C#N)c34)c(C(F)(F)F)cc12 [Compound 72] ; retrieve measured pIC50.
Resp: 6.00 to 7.00

Req: Please give the measured pIC50 for this compound: N#Cc1c(N)sc2c(F)ccc(-c3c(C(F)(F)F)cc4c(N(CCO)CCO)nc(OC[C@@]56CCCN5C[C@H](F)C6)nc4c3F)c12 [Compound 174]
Resp: > 7.00

Continue with the compound presented below.
Req: What pIC50 value was documented for this compound, N#Cc1c(N)sc2c(F)ccc(-c3c(C(F)(F)F)cc4c(N5CCCOCC5)nc(OC[C@@]56CCCN5C[C@H](F)C6)nc4c3F)c12 [Compound 232] ?
Resp: 6.00 to 7.00

----------
Here the recorded IC50 is given for each entry.
# Tested on: HPAC cells (KRAS G12D)
# method: Cell-based pERK HTRF assay in HPAC cells (Biological Example 5)
# experimental-context: Homo sapiens, HPAC

Study these solved cases before continuing.
Req: What value of IC50 has been recorded for this entry: CCN(c1nc(OC[C@@]23CCCN2C[C@H](F)C3)nc2c(F)c(-c3ccc(F)c4sc(N)c(C#N)c34)c(C(F)(F)F)cc12)[C@H]1CCN(C(=O)C(C)C)C1 (single isomer, unassigned)
Resp: 100 to 1000 nM

Req: I have this molecule here, CCC(=O)N1CC[C@@H](N(C)c2nc(OC[C@@]34CCCN3C[C@H](F)C4)nc3c(F)c(-c4ccc(F)c5sc(N)c(C#N)c45)c(C(F)(F)F)cc23)[C@H]1C , and I need its recorded IC50.
Resp: 100 to 1000 nM

# evaluate next
Req: Endpoint output: IC50 of Cc1c(C(=O)N(C)C)nn2c1CN(c1nc(OC[C@@]34CCCN3C[C@H](F)C4)nc3c(F)c(-c4ccc(F)c5sc(N)c(C#N)c45)c(C(F)(F)F)cc13)CC2 . Value?
Resp: ≤ 100 nM

----------
Documented pIC50 across a set of compounds
# tested-on: Avi-KRAS G12V (2-169) GTP/RAF1 RBD-3xFLAG (51-131) (Homo sapiens, UniProt P01116, G12V)
# Construct: Avi-KRAS G12V (2-169)
# Sequence (P01116 2-169 isoform P01116-2 G12V): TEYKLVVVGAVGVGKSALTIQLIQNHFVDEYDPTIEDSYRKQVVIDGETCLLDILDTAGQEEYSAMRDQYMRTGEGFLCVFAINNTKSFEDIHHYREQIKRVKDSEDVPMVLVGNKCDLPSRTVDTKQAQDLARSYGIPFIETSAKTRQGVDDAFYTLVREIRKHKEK
# method: Raf1-KRAS G12V-GTP disruption HTRF assay (Biological Example 3)
# Assay type: binding
# experimental-context: KRAS G12V, GTP-loaded
pIC50: −log10 of the molar value.

Req: Provide value of pIC50 for this record tested with Avi-KRAS G12V (2-169) GTP/RAF1 RBD-3xFLAG (51-131) (Homo sapiens, UniProt P01116, G12V): CCN(c1nc(OC[C@@]23CCCN2C[C@H](F)C3)nc2c(F)c(-c3ccc(F)c4sc(N)c(C#N)c34)c(C(F)(F)F)cc12)[C@H]1C[C@@H]2CCN(C)C(=O)N2C1 (atropisomer, axis not shown)
Resp: 6.00 to 7.00

----------
# Tested on: SW620 cells (KRAS G12V)
# method: Cell-based pERK HTRF assay in SW620 cell (Biological Example 4)
# experimental-context: Homo sapiens, SW-620, SW620 (KRAS G12V) cells, pERK HTRF; class symbols
measured-parameter: IC50

// known answers, use as guide
Req: What measured IC50 is associated with CCN(c1nc(OC[C@@]23CCCN2C[C@H](F)C3)nc2c(F)c(-c3ccc(F)c4sc(N)c(C#N)c34)c(C(F)(F)F)cc12)[C@H]1C[C@H]2CCN(C)C(=O)N2C1 (atropisomer, axis not shown) [Compound 666] on SW620 cells (KRAS G12V)?
Resp: < 100 nM

Req: # returns recorded IC50 (system: SW620 cells (KRAS G12V)) for CCN(c1nc(OC[C@@]23CCCN2C[C@H](F)C3)nc2c(F)c(-c3ccc(F)c4sc(N)c(C#N)c34)c(C(F)(F)F)cc12)[C@H]1CCN(C(=O)[C@H](C)OC)[C@@H]1C (atropisomer, axis not shown) [Compound 781]
Resp: < 100 nM

Req: Form field - read-out: IC50; system: SW620 cells (KRAS G12V); submitted item: CCN(c1nc(OC[C@@]23CCCN2C[C@H](F)C3)nc2c(F)c(-c3ccc(F)c4sc(N)c(C#N)c34)c(C(F)(F)F)cc12)[C@H]1CCN(C(=O)OC2CCC2)C1 (atropisomer, axis not shown) [Compound 802]
Resp: < 100 nM

Req: Item: CCN(c1nc(OCC23CCCN2CC(F)C3)nc2c(F)c(-c3ccc(F)c4sc(N)c(C#N)c34)c(C(F)(F)F)cc12)C1CCN(C(=O)c2oncc2C)C1 (centres unmarked) [Compound 804] Test system: SW620 cells (KRAS G12V) Read-out: IC50 Value: ?
Resp: < 100 nM

Others:
Req: So what IC50 did CN(c1nc(OC[C@@]23CCCN2C[C@H](F)C3)nc2c(F)c(-c3ccc(F)c4sc(N)c(C#N)c34)c(C(F)(F)F)cc12)[C@H]1CC(=O)N(C2CC2)C1 (atropisomer, axis not shown) [Compound 616] get with SW620 cells (KRAS G12V)?
Resp: < 100 nM

----------
# tested-on: Avi-KRAS G12R (1-169) GppNHp/RAF1 RBD-3xFLAG (52-151) (Homo sapiens, UniProt P01116, G12R)
# Construct: Avi-KRAS G12R (1-169)
# Sequence (P01116 1-169 isoform P01116-2 G12R): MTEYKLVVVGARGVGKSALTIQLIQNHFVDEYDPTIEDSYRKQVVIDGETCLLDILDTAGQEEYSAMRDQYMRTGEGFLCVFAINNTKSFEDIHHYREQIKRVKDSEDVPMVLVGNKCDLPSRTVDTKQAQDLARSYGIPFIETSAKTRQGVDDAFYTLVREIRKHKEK
# method: Raf1-KRAS G12R-GppNHP disruption HTRF assay (Biological Example 1)
# Format: binding
# experimental-context: KRAS G12R, GppNHp-loaded; class symbols
// IC50 lookup, one value per entry

# annotated cases, reported IC50 shown
Req: Looking for the measured IC50 of CCN(c1nc(OC[C@@]23CCCN2C[C@H](F)C3)nc2c(F)c(-c3ccc(F)c4sc(N)c(C#N)c34)c(C(F)(F)F)cc12)[C@@H]1CCN(C(=O)[C@H](C)OC)[C@@H]1C (atropisomer, axis not shown) [Compound 789] , can you help?
Resp: < 100 nM

Req: Would you mind telling me what IC50 value was observed for CCN(c1nc(OC[C@@]23CCCN2C[C@H](F)C3)nc2c(F)c(-c3ccc(F)c4sc(N)c(C#N)c34)c(C(F)(F)F)cc12)[C@H]1C[C@H](C)N(C(=O)[C@@H]2CC2(F)F)C1 (atropisomer, axis not shown) [Compound 751] ?
Resp: < 100 nM

Req: Reported IC50, compound CCN(c1nc(OC[C@@]23CCCN2C[C@H](F)C3)nc2c(F)c(-c3ccc(F)c4sc(N)c(C#N)c34)c(C(F)(F)F)cc12)[C@H]1C[C@@H](C)N(C(=O)[C@H](C)OC)C1 (atropisomer, axis not shown) [Compound 753] : ____
Resp: 100 to 1000 nM

Req: What IC50 value was documented for this compound, CCN(c1nc(OCC23CCCN2CC(F)C3)nc2c(F)c(-c3ccc(F)c4sc(N)c(C#N)c34)c(C(F)(F)F)cc12)C1CCN(C(=O)c2oncc2C)C1 (stereo not drawn) [Compound 804] ?
Resp: < 100 nM

Continuing:
Req: Requested field: IC50. Item: CCN(c1nc(OC[C@@]23CCCN2C[C@H](F)C3)nc2c(F)c(-c3ccc(F)c4sc(N)c(C#N)c34)c(C(F)(F)F)cc12)[C@H]1CCN(C(=O)c2cn(C)nn2)C1 (atropisomer, axis not shown) [Compound 725]
Resp: < 100 nM

Req: Please look up its IC50: CCN(c1nc(OC[C@@]23CCCN2C[C@H](F)C3)nc2c(F)c(-c3ccc(F)c4sc(N)c(C#N)c34)c(C(F)(F)F)cc12)[C@H]1CCN(C(=O)C2CC2(F)F)C1 (stereo partly drawn) [Compound 581]
Resp: < 100 nM

Req: Field request: IC50 | item: C=C(C)C(=O)N1CC[C@@H](N(C)c2nc(OC[C@@]34CCCN3C[C@H](F)C4)nc3c(F)c(-c4ccc(F)c5sc(N)c(C#N)c45)c(C(F)(F)F)cc23)[C@H]1C [Compound 671]
Resp: 100 to 1000 nM

Req: // lookup IC50 for CCN(c1nc(OC[C@@]23CCCN2C[C@H](F)C3)nc2c(F)c(-c3ccc(F)c4sc(N)c(C#N)c34)c(C(F)(F)F)cc12)[C@H]1CCN(C(=O)OC)[C@@H]1C (atropisomer, axis not shown) [Compound 688]
Resp: < 100 nM

Req: Name the recorded IC50 for CCN(c1nc(OC[C@@]23CCCN2C[C@H](F)C3)nc2c(F)c(-c3ccc(F)c4sc(N)c(C#N)c34)c(C(F)(F)F)cc12)C1CCN(C(=O)N2C3COCC2C3)C1 (stereo partly drawn) [Compound 652] .
Resp: < 100 nM

Req: Name the recorded IC50 for CCN(c1nc(OC[C@@]23CCCN2C[C@H](F)C3)nc2c(F)c(-c3ccc(F)c4sc(N)c(C#N)c34)c(C(F)(F)F)cc12)[C@H]1CCN(C(=O)N2CC(C#N)C2)C1 (atropisomer, axis not shown) [Compound 778] .
Resp: < 100 nM

Recorded values, source patent US20260042764A1.
